experiment summary: Oral bioavailability in monkey at 10 mg/kg
Format: ADME, organism-based, Macaca mulatta
experimental setup: rhesus monkey, in vivo

molecule	bioavailability [%]
C=CC[C@H](C(=O)NO)[C@@H](CC(C)C)C(=O)N[C@@H](Cc1ccccc1)C(=O)c1c[nH]c2ccccc12	12
C=CC[C@H](C(=O)NO)[C@@H](CC(C)C)C(=O)N[C@H](C(=O)NC)C(C)(C)C	15

###

tested on: Delta-type opioid receptor (Mus musculus, UniProt P32300)
Sequence (P32300 whole entry): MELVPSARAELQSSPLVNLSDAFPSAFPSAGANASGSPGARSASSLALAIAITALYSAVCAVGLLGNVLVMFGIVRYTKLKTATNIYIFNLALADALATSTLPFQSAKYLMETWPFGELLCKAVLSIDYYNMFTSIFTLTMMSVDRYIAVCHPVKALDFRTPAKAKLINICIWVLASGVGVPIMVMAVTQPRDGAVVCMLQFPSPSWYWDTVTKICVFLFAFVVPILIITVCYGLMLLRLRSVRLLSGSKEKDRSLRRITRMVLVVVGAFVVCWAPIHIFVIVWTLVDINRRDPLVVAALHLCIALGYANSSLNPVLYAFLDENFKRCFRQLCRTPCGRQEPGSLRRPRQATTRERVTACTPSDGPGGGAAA
experiment summary: Inhibition of [3H]-Deltorphin 2 binding to mouse delta opioid receptor expressed in rat GH3 cell membranes by Cheng-Prusoff analysis
Parameters: species or system Cell membrane
pKi: −log10 of the molar value. Square brackets hold non-standard residues; d marks the D form. Peptide text beside a SMILES is read from it. PhLac = O=C(O)[C@@H](O)Cc1ccccc1; Hica(2S) = CC(C)C[C@H](O)C(=O)O

compound	pKi
CC(C)C[C@H](NC(=O)[C@H](Cc1ccccc1)NC(=S)CNC(=O)CNC(=O)[C@@H](N)Cc1ccc(O)cc1)C(=O)O	7.33
CC(C)C[C@H](OC(=O)[C@H](Cc1ccccc1)NC(=O)CNC(=O)CNC(=O)[C@@H](N)Cc1ccc(O)cc1)C(=O)O (H-YGGF-{Hica(2S)})	7.92
CC(C)C[C@H](NC(=O)[C@H](Cc1ccccc1)OC(=O)CNC(=O)CNC(=O)[C@@H](N)Cc1ccc(O)cc1)C(=O)O (H-YGG[PhLac]L-OH)	7.47
CC(C)C[C@H](NC(=O)[C@H](Cc1ccccc1)N/C=C/NC(=O)CNC(=O)[C@@H](N)Cc1ccc(O)cc1)C(=O)O	6.23
CC(C)C[C@@H](C(=O)O)N(C)C(=O)[C@H](Cc1ccccc1)NC(=O)CNC(=O)CNC(=O)[C@@H](N)Cc1ccc(O)cc1	7.90

###

Tested on: HMEC-1
experiment summary: Growth inhibition of HMEC-1 incubated for 4 days by Coulter counter method
Format: cell-based
experimental setup: Homo sapiens, HMEC-1, 96 h
readout type: IC50 (µM)

molecule	val
COC(=O)c1ccc(-c2cn(-c3cccc(-c4ccccc4)c3)nn2)cc1	0.62
CS(=O)(=O)c1ccc(C(=O)Nc2ccc(Cl)c(-c3ccccn3)c2)c(Cl)c1	41
CS(=O)(=O)c1ccc(-c2cn(-c3ccc(Cl)c(-c4ccccn4)c3)nn2)c(Cl)c1	9.6

###

Observed EC50 for Delta-type opioid receptor (Homo sapiens, UniProt P41143), reported per entry below.
readout type: EC50

molecule	readout type	val
CC(C)C[C@H](NC(=O)[C@H](Cc1ccccc1)NC(=O)CNC(=O)CN[C@H]([C@@H](N)Cc1ccc(O)cc1)C(F)(F)F)C(=O)O	EC50	> 10 µM
CC(C)C[C@H](NC(=O)[C@H](Cc1ccccc1)NC(=O)CNC(=O)CN[C@@H]([C@@H](N)Cc1ccc(O)cc1)C(F)(F)F)C(=O)O	EC50	> 10 µM

###

# maps each entry to its pIC50
System: MDA-MB-231
experiment summary: cells
experimental setup: Homo sapiens, MDA-MB-231, 24 h
pIC50: −log10 of the molar value.

compound	tested on	pIC50
CCCCS(=O)(=O)NCc1ccc2c(c1)OCO2	MDA-MB-231	4.06
COc1cc(CNC(=O)CCCC/C=C/C(C)C)ccc1O [CAPSAICIN]	MDA-MB-231	3.92
